- Procedure Details: chemical genetic growth profiling, strain panel (AID 1159580);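 also: tested at 20 µM; growth read once vehicle control cultures reached saturation at 30 °C; 1 = growth at the plate median or of vehicle wells; lower values mean less growth of the strain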
- Experimental Setup: S. cerevisiae deletion strains, growth OD, locus YIL066C, strain RNR3
Out of some 5,500 compounds screened, about 2,000 (36%) were called active. About 18% were inconclusive and are not listed. Rule as the data show it: active = normalized growth mostly below about 0.91 (no sharp cut-off); inconclusive = no clear call, values can overlap the other calls; inactive = mostly above about 0.92. This is one part of the list.
Permitted responses: active, inactive

Use the examples below as a reference point.
- Compound: "CN(C)CCC=C1c2ccccc2C=Cc2ccccc21"
  Cat: "inactive"
- Compound: "Cc1coc2ccccc2c1=O"
  Cat: "inactive"
- Compound: "Clc1ccc(Cl)cc1"
  Cat: "inactive"
- Compound: "O=c1[nH]c2cc(Cl)c(Cl)cc2[nH]c1=O"
  Cat: "inactive"
- Compound: "COc1ccc(-c2cc(=O)c3c(OC(C)=O)cc(OC(C)=O)cc3o2)cc1"
  Cat: "inactive"
- Compound: "CC(=O)CC(c1ccccc1)c1c(O)c2ccccc2oc1=O (stereo unspecified)"
  Cat: "inactive"

GET /call?item= `COc1cc(O)c2c(=O)c(-c3ccc(O)cc3)coc2c1` returns the recorded outcome of this test.
active

Check the results log: what was the call for C=C1C2CC[C@@]3(C)[C@H](c4ccoc4)OC(=O)C[C@]13O[C@H]1CC(=O)C(C)(C)[C@H](C(O)C(=O)OC)[C@@]21C (stereo partly specified) ?
inactive

// param item: `C[N+]1(CCCCC[N+]2(C)CCCC2)CCCC1` ; yields the recorded call
inactive

// return assay outcome for `O=C1CCc2cc(OCCCCc3nnnn3C3CCCCC3)ccc2N1`
inactive

What did the test return for `CCCCC1C(=O)N(c2ccccc2)N(c2ccccc2)C1=O` ?
inactive

Outcome? `CCn1cc(C(=O)O)c(=O)c2cc(F)c(N3CCNCC3)cc21`
inactive

Would you mind telling me which call this test gave `COc1ccc(-c2coc3cc(O)cc(O)c3c2=O)cc1` ?
active

Short answer needed: outcome of this test for `Nc1nc(N)c2nc(-c3ccccc3)c(N)nc2n1` ?
inactive

Each compound tested received a call. Report the one for `O=C(O)/C=C(\CC(=O)O)C(=O)O` .
inactive

Returns: the outcome recorded for `CC(=O)Oc1c(-c2ccccc2)oc2c(CC=C(C)C)c3c(c(OC(C)=O)c2c1=O)C=CC(C)(C)O3` in this assay.
active

Recorded call for CC(N)Cc1ccc(O)cc1 (stereo unspecified) ?
inactive

Test call for this compound, please: `COc1cc([C@@H]2c3cc4c(cc3[C@H](OC(C)=O)[C@H]3COC(=O)[C@H]23)OCO4)cc(OC)c1OC`
inactive

// return assay outcome for `COc1ccc(C(=O)/C=C/c2ccccc2)cc1`
inactive

Assay outcome for `CC1=NCCc2c1[nH]c1cc(O)ccc21` : what was it?
inactive

Per the assay record, what outcome was assigned to CC1NC(=O)NC1=O (stereo unspecified) ?
inactive

How was CSc1ccc2c(c1)C(N1CCN(C)CC1)Cc1ccccc1S2 (stereo unspecified) classified in this test?
active

What outcome does the record of this test show for Cn1nnnc1SCC1=C(C(=O)O)N2C(=O)C(NC(=O)C(O)c3ccccc3)C2SC1 (stereo unspecified) ?
inactive

# fetch the recorded call for CC1(C)O[C@@H]2CC3C4CCC5=CC(=O)C=C[C@]5(C)[C@@]4(F)[C@@H](O)C[C@]3(C)[C@]2(C(=O)CO)O1 (stereo partly specified) here
inactive

Called result for `CCCCCCc1ccc(O)cc1O`
inactive

Which outcome was assigned to OC1C(O)C(O)C(O)C(O)C1O (stereo unspecified) in this test?
inactive

Name the outcome recorded for `CN(C)CC/C=C1/c2ccccc2COc2ccccc21` in the assay.
inactive

Per the records of this test, what outcome belongs to `CN(N=O)C(=O)N[C@@H]1[C@@H](O)[C@H](O)[C@@H](CO)O[C@@H]1O` ?
inactive

// outcome(item) with item = `O=c1oc2ccccc2c(O)c1Cc1c(O)c2ccccc2oc1=O`
inactive

Assay outcome for CC(=O)O[C@H]1C[C@@]2(C)[C@H](c3ccoc3)OC(=O)[C@H]3O[C@]32[C@@]2(C)C1[C@]1(C)C(C[C@H]2OC(C)=O)C(C)(C)[C@H](OC(C)=O)C[C@@H]1OC(C)=O (stereo partly specified) : what was it?
inactive

Give the logged outcome of this assay for the following compound: CC(=O)[C@H]1CCC2C3CC=C4C[C@@H](O)CC[C@]4(C)C3CC[C@@]21C (stereo partly specified)
inactive

Hi team, can someone confirm the assay call for `CCCCCCCCCc1ccc(O)cc1` ?
active

====

- Procedure Details: chemical genetic growth profiling, strain panel (AID 1159580);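 also: tested at 20 µM; growth read once vehicle control cultures reached saturation at 30 °C; 1 = growth at the plate median or of vehicle wells; lower values mean less growth of the strain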
- Experimental Setup: S. cerevisiae deletion strains, growth OD, locus YDL074C, strain BRE1
In all, about 5,500 compounds went through this assay and about 2,000 (36%) were called active. Inconclusive results (about 18%) are left out. No stated cut-off is given here; in the data, active means normalized growth mostly below about 0.91 (no sharp cut-off); inconclusive means no clear call, values can overlap the other calls; inactive means mostly above about 0.92. The list shows a part of the results.
A correct response names exactly one class from y (active), n (inactive)

Take a look at these entries with their results.
- Compound: "CCC(/C=C/[C@@H](C)[C@H]1CCC2C3CC=C4C[C@@H](O)CC[C@]4(C)C3CC[C@@]21C)C(C)C (stereo partly drawn)"
  Cat: "n"
- Compound: "CC(C)[C@]12O[C@H]1[C@@H]1O[C@@]13[C@@]1(C)CCC4=C(COC4=O)[C@@H]1C[C@@H]1O[C@@]13C2=O"
  Cat: "n"
- Compound: "CCN(CC)CCNc1ccc(CO)c2sc3ccccc3c(=O)c12"
  Cat: "n"

# outcome recorded in this test, key = `O=C1c2c(O)ccc(O)c2C(=O)c2c(NCCNCCO)ccc(NCCNCCO)c21`
n

// return assay outcome for CC(=O)[C@H]1CCC2C3CC=C4C[C@@H](O)CC[C@]4(C)C3CC[C@@]21C (stereo partly drawn)
n

// param item: `ClC(Cl)=C(c1ccc(Cl)cc1)c1ccc(Cl)cc1` ; yields the recorded call
n

Tell me the assay call for `CC(C)Oc1ccc2c(=O)cc(-c3ccccc3)oc2c1` please.
n

Dear all, I need the recorded test outcome for `CC(C)c1ccc2c(c1O)CC[C@H]1C3=C(CC[C@]21C)C(=O)OC3` , thank you.
y

====

- Procedure Details: chemical genetic growth profiling, strain panel (AID 1159580);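 also: tested at 20 µM; growth read once vehicle control cultures reached saturation at 30 °C; 1 = growth at the plate median or of vehicle wells; lower values mean less growth of the strain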
- Experimental Setup: S. cerevisiae deletion strains, growth OD, locus YDR101C, strain arx1
Screen size: about 5,500 compounds; about 2,000 (36%) were called active. Inconclusive results (about 18%) are left out. Cut-off read from the data, not from the text of the source: active = normalized growth mostly below about 0.91 (no sharp cut-off); inconclusive = no clear call, values can overlap the other calls; inactive = mostly above about 0.92. The list shows a part of the results.
Entry note: the call must match one of yes (1) = active, no (0) = inactive

- Compound: "CC(=O)O[C@@H]1CC2C(C)(C)C(=O)CC[C@]2(C)C2CC[C@@]3(C)[C@H](c4ccoc4)OC(=O)C4OC43[C@@]21C (stereo partly drawn)"
  Cat: "no (0)"
- Compound: "NCCc1ccc(O)cc1"
  Cat: "no (0)"
- Compound: "CC(=O)O[C@@H]1CC2C(C)(C)CCC(=O)[C@]2(C)C2CC[C@@]3(C)[C@H](c4ccoc4)OC(=O)C4OC43[C@@]21C (stereo partly drawn)"
  Cat: "no (0)"
- Compound: "COCCOC(=O)C1=C(C)NC(C)=C(C(=O)OC(C)C)C1c1cccc([N+](=O)[O-])c1 (stereo not drawn)"
  Cat: "no (0)"
- Compound: "COc1cc2c3cc1Oc1cc(ccc1O)C[C@@H]1c4c(cc(OC)c(O)c4Oc4ccc(cc4)C[C@@H]3N(C)CC2)CC[N+]1(C)C"
  Cat: "no (0)"
- Compound: "C[N+]1(CCCCC[N+]2(C)CCCC2)CCCC1"
  Cat: "no (0)"

Answer briefly: the call reported for COc1cc([C@@H]2c3cc4c(cc3C(O[C@@H]3O[C@@H]5CO[C@@H](c6cccs6)OC5[C@H](O)[C@H]3O)C3COC(=O)[C@@H]32)OCO4)cc(OC)c1O (stereo partly drawn) in this assay.
no (0)

Entry CC(=O)OC1CC2C(C)(C)CCCC2(C)C2CCC3(C)C(c4ccoc4)OC(=O)C4OC43C12C (stereo not drawn) : call = ?
no (0)

Name the outcome recorded for CC1(C)O[C@@H]2CC3C4C[C@H](F)C5=CC(=O)C=CC5(C)C4C(O)CC3(C)[C@]2(C(=O)CO)O1 (stereo partly drawn) in the assay.
no (0)

In this assay, the call recorded for `CC(=O)O.CC(=O)O.[Cd]` was what?
yes (1)

Called result for `CCCN1C[C@H](CSC)C[C@@H]2c3cccc4[nH]cc(c34)C[C@H]21`
no (0)

Test call for this compound, please: `CC(C)[C@]12O[C@H]1[C@@H]1O[C@@]13[C@@]1(C)CCC4=C(COC4=O)[C@@H]1C[C@@H]1O[C@@]13C2=O`
no (0)

Give the logged outcome of this assay for the following compound: `CCCCCCc1ccc(O)cc1O`
yes (1)

====

- Procedure Details: chemical genetic growth profiling, strain panel (AID 1159580);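 also: tested at 20 µM; growth read once vehicle control cultures reached saturation at 30 °C; 1 = growth at the plate median or of vehicle wells; lower values mean less growth of the strain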
- Experimental Setup: S. cerevisiae deletion strains, growth OD, locus YLR268W, strain sec22
In all, about 5,500 compounds went through this assay and about 2,000 (36%) were called active. Inconclusive results (about 18%) are left out. No stated cut-off is given here; in the data, active means normalized growth mostly below about 0.91 (no sharp cut-off); inconclusive means no clear call, values can overlap the other calls; inactive means mostly above about 0.92. The list shows a part of the results.
Select the correct class. Options are 1 for active, 0 for inactive and nothing else.

# example entries with known answers
- Molecule: "CCC1C2CC3C4N(C)c5ccccc5C45CC(C2C5OC(C)=O)N3C1OC(C)=O (stereo unspecified)"
  Cat: 0
- Molecule: "NCC(=O)CCC(=O)O"
  Cat: 0
- Molecule: "COc1ccc(-c2cc(=O)c3ccccc3o2)cc1"
  Cat: 1

Hello, I am checking results. What call was entered for C=CCc1ccccc1OCC(O)CNC(C)C (stereo unspecified) ?
0

What classification did `COc1ccc2c(=O)cc(-c3ccccc3OC)oc2c1` end up with in this test?
1

Hi, do you know how `COc1ccc(-c2coc3cc(OC)cc(O)c3c2=O)cc1` came out in this test?
0

Dear all, I need the recorded test outcome for CC[N+]1(C)CCCC(OC(=O)C(O)(c2ccccc2)c2ccccc2)C1 (stereo unspecified) , thank you.
0

What is the recorded call for this molecule in the test? `C[N+]1(CCCCC[N+]2(C)CCCC2)CCCC1`
0

Call for entry `CN1CCc2c(c3ccccc3n2Cc2ccccc2)C1` :
0

Per the assay record, what outcome was assigned to `CC(=O)Oc1cc(OC(C)=O)c2c(=O)c(-c3ccccc3)coc2c1` ?
0

Record lookup: outcome of this test for `CC(C)Oc1ccc2c(=O)cc(-c3ccccc3)oc2c1` ?
0

Test call for this molecule, please: `COc1ccc(-c2cc(=O)c3ccccc3o2)cc1OC`
0

Could you check what this test reported for CC(=O)O[C@H]1C[C@@H](O)C(C)(C)C2C[C@@H](OC(C)=O)[C@]3(C)C(CC[C@@]4(C)[C@H](c5ccoc5)OC(=O)C5OC543)[C@]21C (stereo partly specified) ?
0

Outcome? `O=c1c(-c2ccc(O)cc2)coc2cc(O)cc(O)c12`
0

Short answer needed: outcome of this test for `COc1c(O)cc2c(-c3ccccc3)cc(=O)oc2c1OC` ?
0

Please indicate how the test categorized `COc1cccc(-c2cc(=O)c3ccc(OC)cc3o2)c1` .
0

Query: recorded result category for `CN(N=O)C(=O)N[C@@H]1[C@@H](O)[C@H](O)[C@@H](CO)O[C@@H]1O` in this test
0

Lab log entry: CC(=O)OC1CC2C(C)(C)CCCC2(C)C2CCC3(C)C(c4ccoc4)OC(=O)C4OC43C12C (stereo unspecified) — outcome as called in the assay?
0

Test call, this molecule: CC1(C)O[C@@H]2CC3C4C[C@H](F)C5=CC(=O)C=CC5(C)C4C(O)CC3(C)[C@]2(C(=O)CO)O1 (stereo partly specified)
0

Identify the outcome logged in this assay for the molecule shown: CC(=O)O[C@@H]1CC2C(C)(C)CCC(=O)[C@]2(C)C2CC[C@@]3(C)[C@H](c4ccoc4)OC(=O)C4OC43[C@@]21C (stereo partly specified)
0

For this molecule, state the assay outcome: CC(=O)O[C@H]1C[C@@]2(C)[C@H](c3ccoc3)OC(=O)[C@H]3O[C@]32[C@@]2(C)C1[C@]1(C)C(C[C@H]2OC(C)=O)C(C)(C)[C@H](OC(C)=O)C[C@@H]1OC(C)=O (stereo partly specified)
0
